FYI, the data here is from paper PMC11674305.

- Test system: neural crest cells (NCC)
- ASSAY_NOTES: cMINC (UKN2) assay: circular migration of neural crest cells, with viability
- Format: cell-based, human
- CONDITION_LABEL: viability, primary screen, 24 h exposure; * = no effect up to highest tested concentration
// reported BMC10 (V) for each item listed
// units = µM; emit number, no label

Consider the reported BMC10 (V) for these molecules:
1. CO/N=C(/C(=O)OC)c1ccccc1COc1ccccc1C
43
2. C=C(C)[C@H]1Cc2c(ccc3c2O[C@@H]2COc4cc(OC)c(OC)cc4[C@@H]2C3=O)O1
0.1
3. O=[N+]([O-])c1cc(C(F)(F)F)c(Cl)c([N+](=O)[O-])c1Nc1ncc(C(F)(F)F)cc1Cl
0.8

# input for lookup
Exercise: Give BMC10 (V) for `COC(=O)N(OC)c1ccccc1COc1ccn(-c2ccc(Cl)cc2)n1`
Solution: 44

====

- Test system: neural crest cells (NCC)
- ASSAY_NOTES: cMINC (UKN2) assay: circular migration of neural crest cells, with viability
- Type: cell-based, human
- CONDITION_LABEL: migration/cytotoxicity ratio; hit requires ≥ 1.3; HTC used where no viability effect
// reported Ratio for each item listed
Give your answer as a number; write no unit.

Consider the reported Ratio for these compounds:
1. CON=C(C(=O)OC)c1ccccc1CON=C(C)c1cccc(C(F)(F)F)c1 [Trifloxystrobin, trifloxystrobin]
1.4
2. CO/C=C(/C(=O)OC)c1ccccc1Oc1cc(Oc2ccccc2C#N)ncn1 [Azoxystrobin, azoxystrobin]
3.5
3. COC(=O)N(OC)c1ccccc1COc1ccn(-c2ccc(Cl)cc2)n1 [Pyraclostrobin, pyraclostrobin]
2.6
4. CC(C)(C)c1ccc(CSc2cnn(C(C)(C)C)c(=O)c2Cl)cc1 [Pyridaben, pyridaben]
1.8
5. C=C(C)[C@H]1Cc2c(ccc3c2O[C@@H]2COc4cc(OC)c(OC)cc4[C@@H]2C3=O)O1 [Rotenone, rotenone]
1.9

Exercise: Give Ratio for CO/N=C(/C1=NOCCO1)c1ccccc1Oc1ncnc(Oc2ccccc2Cl)c1F [Fluoxastrobin, fluoxastrobin]
Solution: 4.6

Exercise: Give Ratio for CO/C=C(/C(=O)OC)c1ccccc1COc1cccc(C(F)(F)F)n1 [Picoxystrobin, picoxystrobin]
Solution: 6.0

Exercise: Give Ratio for CCOCn1c(-c2ccc(Cl)cc2)c(C#N)c(Br)c1C(F)(F)F [Chlorfenapyr, chlorfenapyr]
Solution: 1.3

Exercise: Give Ratio for O=[N+]([O-])c1cc(C(F)(F)F)c(Cl)c([N+](=O)[O-])c1Nc1ncc(C(F)(F)F)cc1Cl [Fluazinam, fluazinam]
Solution: 2.0

Exercise: Give Ratio for Cc1nn(C)c(Oc2ccccc2)c1C=NOCc1ccc(C(=O)OC(C)(C)C)cc1 [Fenpyroximate, fenpyroximate]
Solution: 1.9

Exercise: Give Ratio for CO/N=C(/C(=O)OC)c1ccccc1COc1ccccc1C [Kresoxim-methyl, kresoxim-methyl]
Solution: 1.6

Exercise: Give Ratio for Cc1ccc(-c2c(Cl)nc(C#N)n2S(=O)(=O)N(C)C)cc1 [Cyazofamid, cyazofamid]
Solution: 2.6

====

- System: neural crest cells (NCC)
- ASSAY_NOTES: cMINC (UKN2) assay: circular migration of neural crest cells, with viability
- Assay type: cell-based, human
- CONDITION_LABEL: Homo sapiens, 24 h, migration, primary screen, 24 h exposure; read-out: BMC25
RECORDED_ENDPOINT: BMC25 (M)
// units = M; emit number, no label

1) CCOCn1c(-c2ccc(Cl)cc2)c(C#N)c(Br)c1C(F)(F)F [Chlorfenapyr, chlorfenapyr]
5.1e-06
2) CON=C(C(=O)OC)c1ccccc1CON=C(C)c1cccc(C(F)(F)F)c1 [Trifloxystrobin, trifloxystrobin]
1.3e-05
3) COC(=O)N(OC)c1ccccc1COc1ccn(-c2ccc(Cl)cc2)n1 [Pyraclostrobin, pyraclostrobin]
1.7e-05
4) O=[N+]([O-])c1cc(C(F)(F)F)c(Cl)c([N+](=O)[O-])c1Nc1ncc(C(F)(F)F)cc1Cl [Fluazinam, fluazinam]
4e-07

Exercise: Give BMC25 (M) for CO/N=C(/C1=NOCCO1)c1ccccc1Oc1ncnc(Oc2ccccc2Cl)c1F [Fluoxastrobin, fluoxastrobin]
Solution: 2e-05

Exercise: Give BMC25 (M) for Cc1ccc(-c2c(Cl)nc(C#N)n2S(=O)(=O)N(C)C)cc1 [Cyazofamid, cyazofamid]
Solution: 7.8e-06

Exercise: Give BMC25 (M) for CO/N=C(/C(=O)OC)c1ccccc1COc1ccccc1C [Kresoxim-methyl, kresoxim-methyl]
Solution: 2.7e-05

Exercise: Give BMC25 (M) for CC(C)(C)c1ccc(CSc2cnn(C(C)(C)C)c(=O)c2Cl)cc1 [Pyridaben, pyridaben]
Solution: 4.7e-05

Exercise: Give BMC25 (M) for Cc1nn(C)c(Oc2ccccc2)c1C=NOCc1ccc(C(=O)OC(C)(C)C)cc1 [Fenpyroximate, fenpyroximate]
Solution: 3e-06

====

- Tested on: neural crest cells (NCC)
- ASSAY_NOTES: cMINC (UKN2) assay: circular migration of neural crest cells, with viability
- Format: cell-based, human
- CONDITION_LABEL: human, 24 h
RECORDED_ENDPOINT: BMC10 (V) (µM)
// units = µM; emit number, no label

Consider the reported BMC10 (V) for these compounds:
1) CCOCn1c(-c2ccc(Cl)cc2)c(C#N)c(Br)c1C(F)(F)F
6.8
2) CON=C(C(=O)OC)c1ccccc1CON=C(C)c1cccc(C(F)(F)F)c1
18
3) Cc1ccc(-c2c(Cl)nc(C#N)n2S(=O)(=O)N(C)C)cc1
20

Exercise: Give BMC10 (V) for `CC(C)(C)c1ccc(CSc2cnn(C(C)(C)C)c(=O)c2Cl)cc1`
Solution: 83

====

- System: neural crest cells (NCC)
- ASSAY_NOTES: cMINC (UKN2) assay: circular migration of neural crest cells, with viability
- Assay type: cell-based, human
- CONDITION_LABEL: Pre-Screen 1, single concentration 1:1000 of stock, in most cases 100 μM
// reported Migration for each item listed

Exercise: Give Migration for `CON=C(C(=O)OC)c1ccccc1CON=C(C)c1cccc(C(F)(F)F)c1`
Solution: 85 % of control

Exercise: Give Migration for `Cc1ccc(-c2c(Cl)nc(C#N)n2S(=O)(=O)N(C)C)cc1`
Solution: 29 % of control

Exercise: Give Migration for `CO/C=C(/C(=O)OC)c1ccccc1Oc1cc(Oc2ccccc2C#N)ncn1`
Solution: 59 % of control

Exercise: Give Migration for `CO/C=C(/C(=O)OC)c1ccccc1COc1cccc(C(F)(F)F)n1`
Solution: 65 % of control

====

- Test system: neural crest cells (NCC)
- ASSAY_NOTES: cMINC (UKN2) assay: circular migration of neural crest cells, with viability
- Format: cell-based, human
- CONDITION_LABEL: Pre-Screen 1, single concentration 1:1000 of stock, in most cases 100 μM
RECORDED_ENDPOINT: Migration

1. CCOCn1c(-c2ccc(Cl)cc2)c(C#N)c(Br)c1C(F)(F)F [Chlorfenapyr, chlorfenapyr]
0 % of control
2. O=C1NS(=O)(=O)c2ccccc21 [Saccharin sodium hydrate, reference compound]
103 % of control
3. COC(=O)N(OC)c1ccccc1COc1ccn(-c2ccc(Cl)cc2)n1 [Pyraclostrobin, pyraclostrobin]
72 % of control
4. O=[N+]([O-])c1cc(C(F)(F)F)c(Cl)c([N+](=O)[O-])c1Nc1ncc(C(F)(F)F)cc1Cl [Fluazinam, fluazinam]
0 % of control
5. C=C(C)[C@H]1Cc2c(ccc3c2O[C@@H]2COc4cc(OC)c(OC)cc4[C@@H]2C3=O)O1 [Rotenone, rotenone]
0 % of control
6. O=C1O[C@H]([C@@H](O)CO)C(O)=C1O [L-ascorbic acid, reference compound]
100 % of control

# input for lookup
Exercise: Give Migration for CO/N=C(/C1=NOCCO1)c1ccccc1Oc1ncnc(Oc2ccccc2Cl)c1F [Fluoxastrobin, fluoxastrobin]
Solution: 60 % of control

====

- Test system: neural crest cells (NCC)
- ASSAY_NOTES: cMINC (UKN2) assay: circular migration of neural crest cells, with viability
- Format: cell-based, human
- CONDITION_LABEL: Pre-Screen 1, single concentration 1:1000 of stock, in most cases 100 μM
RECORDED_ENDPOINT: Migration

1. CC(C)(C)c1ccc(CSc2cnn(C(C)(C)C)c(=O)c2Cl)cc1 [Pyridaben, pyridaben]
58 % of control
2. Cc1nn(C)c(Oc2ccccc2)c1C=NOCc1ccc(C(=O)OC(C)(C)C)cc1 [Fenpyroximate, fenpyroximate]
38 % of control

# input for lookup
Exercise: Give Migration for CO/N=C(/C(=O)OC)c1ccccc1COc1ccccc1C [Kresoxim-methyl, kresoxim-methyl]
Solution: 72 % of control

====

- System: neural crest cells (NCC)
- ASSAY_NOTES: cMINC (UKN2) assay: circular migration of neural crest cells, with viability
- Assay type: cell-based, human
- CONDITION_LABEL: Pre-Screen 1, single concentration 1:1000 of stock, in most cases 100 μM
// reported Viability for each item listed

Consider the reported Viability for these compounds:
1. CO/N=C(/C1=NOCCO1)c1ccccc1Oc1ncnc(Oc2ccccc2Cl)c1F
95 % of control
2. CO/C=C(/C(=O)OC)c1ccccc1Oc1cc(Oc2ccccc2C#N)ncn1
95 % of control
3. CO/N=C(/C(=O)OC)c1ccccc1COc1ccccc1C
33 % of control

# input for lookup
Exercise: Give Viability for Cc1nn(C)c(Oc2ccccc2)c1C=NOCc1ccc(C(=O)OC(C)(C)C)cc1 [Fenpyroximate, fenpyroximate]
Solution: 95 % of control
